Would you kindly list EC50 for each of these molecules?
target: 5-hydroxytryptamine receptor 1A (Homo sapiens, UniProt P08908); experiment: Agonist activity at human 5HT1A receptor in HeLa cells assessed as stimulation of [35S]GTP-gamma-S binding
Sequence (P08908 whole entry): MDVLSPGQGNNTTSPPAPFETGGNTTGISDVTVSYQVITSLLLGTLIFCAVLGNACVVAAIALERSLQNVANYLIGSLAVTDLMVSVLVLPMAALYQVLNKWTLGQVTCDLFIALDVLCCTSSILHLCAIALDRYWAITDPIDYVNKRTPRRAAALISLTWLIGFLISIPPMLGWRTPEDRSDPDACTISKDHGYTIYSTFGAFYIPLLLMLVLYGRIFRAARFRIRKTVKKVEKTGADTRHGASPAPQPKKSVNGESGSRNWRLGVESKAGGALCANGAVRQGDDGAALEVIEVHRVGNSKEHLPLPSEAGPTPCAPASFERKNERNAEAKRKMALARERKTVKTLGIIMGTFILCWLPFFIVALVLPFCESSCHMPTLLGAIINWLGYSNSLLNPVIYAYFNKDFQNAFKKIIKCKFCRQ
Field: numeric (nM). Do not append units.

In: Sample CC1(C)Oc2cccc(OCCNCc3cccc(C4=CCCC4)c3)c2O1 — what was its EC50?
Out: 24.5

In: Name the recorded EC50 for Fc1ccc(-c2cncc(CNC[C@H]3CCc4ccccc4O3)c2)cc1 [SARIZOTAN] .
Out: 77.6

In: Any idea what EC50 was measured for Fc1ccc(-c2cncc(CN3CCN(c4cccc5c4OCCO5)CC3)c2)cc1 [ADOPRAZINE] ?
Out: 5.89

In: Entry CC(C)Oc1ccccc1OCCNCc1cccc(-c2ccsc2)c1 : reported EC50 = ?
Out: 67.6

In: Endpoint output: EC50 of CCC1(C)Cc2cccc(OCCNCc3cccc(C4=CCCC4)c3)c2O1 (stereo unspecified) . Value?
Out: 32.4

In: What value of EC50 has been recorded for this entry: CC(C)Oc1ccccc1OCCNCc1cccc(C2=CCCCC2)c1
Out: 46.8

In: # get_value(readout='EC50', item= CC(C)Oc1ccccc1OCCNCc1cccc(C2=CCCCCC2)c1 )
Out: 1550

In: What value of EC50 has been reported for the following molecule? C1=C(c2cccc(CNCCOc3cccc4c3OCCO4)c2)CCC1
Out: 6.46

In: What value of EC50 has been recorded for this entry: O=c1[nH]c2cccc(N3CCN(Cc4cccc(-c5ccccc5)c4)CC3)c2o1 [BIFEPRUNOX]
Out: 324

In: Fill in the blank: the reported EC50 of CC1(C)Cc2cccc(OCCNCc3cccc(C4=CCCC4)c3)c2O1 is ____.
Out: 10

In: // returns reported EC50 for input C1=C(c2cccc(CNCCOc3cccc4c3OCO4)c2)CCC1
Out: 135

In: # get_value(readout='EC50', item= CC1(C)COc2c(OCCNCc3cccc(C4=CCCC4)c3)cccc21 )
Out: 112

In: So what's the measured EC50 for this one? CC(C)Oc1ccccc1OCCNCc1cccc(C2=CCCC2)c1
Out: 69.2

In: Returns the measured EC50 for the input molecule. Input: C1=C(c2cncc(CNCCOc3cccc4c3OC3(CC3)C4)c2)CCC1
Out: 2.63

In: Dear colleague, I am looking for the recorded EC50 of the following molecule: C1=C(c2cccc(CNCCOc3cccc4c3OC3(CC3)C4)c2)CCC1
Out: 33.9

In: Suppose we examine the molecule CC1(C)Cc2cccc(OCCNCc3cncc(C4=CCCC4)c3)c2O1 ; what EC50 value has been reported?
Out: 2.88

In: // lookup EC50 for CC(C)Oc1ccccc1OCCNCc1cccc(C2CCCC2)c1
Out: 195

In: Entry CC(C)Oc1ccccc1OCCNCc1cccc(-c2ccccc2)c1 has what EC50?
Out: 1410

* * *

biological target: D(2) dopamine receptor (Rattus norvegicus, UniProt P61169); assay: Displacement of [3H]YM-09151-2 from rat striatum D2 receptor
Sequence (P61169 whole entry): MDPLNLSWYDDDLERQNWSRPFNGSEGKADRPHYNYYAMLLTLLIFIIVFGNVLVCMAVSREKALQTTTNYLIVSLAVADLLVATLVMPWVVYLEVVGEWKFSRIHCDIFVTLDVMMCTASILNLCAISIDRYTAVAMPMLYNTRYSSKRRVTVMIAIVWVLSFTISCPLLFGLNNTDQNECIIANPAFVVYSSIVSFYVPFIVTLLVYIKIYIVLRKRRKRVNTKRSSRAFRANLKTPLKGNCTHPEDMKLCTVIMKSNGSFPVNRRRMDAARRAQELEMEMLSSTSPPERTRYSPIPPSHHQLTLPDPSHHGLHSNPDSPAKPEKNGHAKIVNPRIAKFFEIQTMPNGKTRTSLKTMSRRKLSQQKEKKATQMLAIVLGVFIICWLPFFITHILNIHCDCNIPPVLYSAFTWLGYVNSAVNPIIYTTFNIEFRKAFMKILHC
Quantity measured: Ki (nM)
Lab book: enter the figure in nM, no units written.

In: Request body: readout Ki, system D(2) dopamine receptor (Rattus norvegicus, UniProt P61169), query CC(C)Oc1ccccc1OCCNCc1cccc(C2=CCCCC2)c1 . Return the value.
Out: 1.55

In: API: value(readout=Ki, system=D(2) dopamine receptor (Rattus norvegicus, UniProt P61169)) for record CC1(C)Cc2cccc(OCCNCc3cccc(C4=CCCC4)c3)c2O1
Out: 0.417

In: Notebook: pull reported Ki for D(2) dopamine receptor (Rattus norvegicus, UniProt P61169), entry C1=C(c2cccc(CNCCOc3cccc4c3OC3(CC3)C4)c2)CCC1
Out: 1.12

In: Lab note: need Ki with D(2) dopamine receptor (Rattus norvegicus, UniProt P61169) for entry C1=C(c2cccc(CNCCOc3cccc4c3OCCO4)c2)CCC1 , please look it up.
Out: 0.776

In: Hello, I am looking for reported Ki with D(2) dopamine receptor (Rattus norvegicus, UniProt P61169) for CC(C)Oc1ccccc1OCCNCc1cccc(-c2ccco2)c1 . Could you help?
Out: 0.339

In: # value lookup — system D(2) dopamine receptor (Rattus norvegicus, UniProt P61169), readout Ki, item CC(C)Oc1ccccc1OCCNCc1cccc(C2=CCCC2)c1
Out: 0.501
